Source of measurements: the kinase profiling compilation of Christmann-Franck et al. (2016)

# test.system: RPS6KB1 (human)
# assay.explanation: radiometric filter-binding kinase assay, Kinase HotSpot
# assay.conditions: compound 0.5 µM; ATP 10 µM
reported.metric: residual activity
Don't forget the unit after the value.

Query: Which measured residual activity belongs to `COc1ccc(Cl)cc1NC(=O)Nc1cc(C)nc2ccccc12` , tested on RPS6KB1 (human)?
Response: 96%

Query: GET /values?readout=residual activity&system=RPS6KB1 (human)&item= `Fc1ccc(-c2nc3n(c2-c2ccncc2)CCS3)cc1`
Response: 108%

Query: API: value(readout=residual activity, system=RPS6KB1 (human)) for record `Cc1nc(-c2ccccc2)c(-c2ccncc2)o1`
Response: 92.8%

Query: Please tell me: residual activity of `CO[C@@H]1[C@H](N(C)C(=O)c2ccccc2)C[C@H]2O[C@]1(C)n1c3ccccc3c3c4c(c5c6ccccc6n2c5c31)C(=O)NC4` , system RPS6KB1 (human)?
Response: 19.4%

Query: Report residual activity for `COc1ccc2c(c1)/C(=C/c1cnc[nH]1)C(O)=N2` tested on RPS6KB1 (human).
Response: 98.2%

Query: Record lookup: for RPS6KB1 (human), what residual activity belongs to `CCCCc1c(-c2ccc(OC)cc2)[nH]c2nccnc12` ?
Response: 108%

Query: Given the entry `O=C1c2ccccc2-c2nc3nnnn3nc21` , what residual activity was observed with RPS6KB1 (human)?
Response: 85.8%

Query: Record `CN(C)CCCn1cc(C2=C(c3c[nH]c4ccccc34)C(=O)NC2=O)c2ccccc21` : what is its residual activity with RPS6KB1 (human)?
Response: 11.6%

Query: What residual activity appears in the records for this compound with RPS6KB1 (human)? `COc1cc2ncnc(Nc3ccc(Oc4ccccc4)cc3)c2cc1OC`
Response: 108%

Query: Enter reported residual activity observed with RPS6KB1 (human) for `O=C1Nc2ccc(Br)cc2/C1=C\c1cc2c([nH]1)CCCC2`
Response: 91.9%

Query: Field: residual activity (RPS6KB1 (human)). Entry: `CN(C)c1ccc(/C=C2\C(=O)Nc3ccccc32)cc1`
Response: 97.1%

Query: Quick check: residual activity on RPS6KB1 (human), item `c1ccc2c(-c3ccncc3)c[nH]c2c1` ?
Response: 79.9%

Query: Hello, I am looking for reported residual activity with RPS6KB1 (human) for `Cn1c2ccccc2c2c3c(c4c5ccccc5n(CCC#N)c4c21)CNC3=O` . Could you help?
Response: 6.71%

Query: Tell me reported residual activity for `COc1ccc2c(c1)c(C1=C(c3c[nH]c4ccccc34)C(=O)NC1=O)cn2CCCN(C)C` , tested with RPS6KB1 (human).
Response: 19.7%

Query: Give the reported residual activity for `C[C@@H]1CCN(C(=O)CC#N)C[C@@H]1N(C)c1ncnc2[nH]ccc12` (system: RPS6KB1 (human)).
Response: 103%

Query: What reported residual activity corresponds to `O=C1C(Cl)=C(N2C(=O)CCC2=O)C(=O)c2ccccc21` on RPS6KB1 (human)?
Response: 101%

Query: What reported residual activity corresponds to `O=C(c1cc2cc(O)ccc2[nH]1)c1cc2cc(O)ccc2[nH]1` on RPS6KB1 (human)?
Response: 85%

Query: Provide value of residual activity for this record tested with RPS6KB1 (human): `Cc1cccc(-c2nc(C(C)(C)C)[nH]c2-c2ccc3c(c2)OCO3)n1`
Response: 95.9%

Query: Enter reported residual activity observed with RPS6KB1 (human) for `CS(=O)(=O)CCNCc1ccc(-c2ccc3ncnc(Nc4ccc(OCc5cccc(F)c5)c(Cl)c4)c3c2)o1`
Response: 95.7%

Query: Report residual activity for `N#Cc1c[nH]c2c[nH]/c(=N\Cc3cccnc3)cc2/c1=N\c1ccc(F)c(Cl)c1` tested on RPS6KB1 (human).
Response: 89.4%

Query: Form field: residual activity recorded for `COc1cc2ncnc(Nc3ccc(OCc4ccccc4)cc3)c2cc1OC` with RPS6KB1 (human) (enter value)
Response: 95.1%

Query: Query the reported residual activity for RPS6KB1 (human); item: `CC(C)(C)c1cc(C=C(C#N)C#N)cc(Br)c1O`
Response: 91.3%

Query: # value lookup — system RPS6KB1 (human), readout residual activity, item `COc1ccc(S(=O)(=O)N(CCO)c2ccccc2CN(C)C/C=C/c2ccc(Cl)cc2)cc1`
Response: 103%

Query: What reported residual activity corresponds to `O=C1NC(=O)c2c1c1c3ccccc3[nH]c1n1cncc21` on RPS6KB1 (human)?
Response: 70.6%

Query: # get_value(readout= residual activity, system= RPS6KB1 (human)) for `COc1cc(Nc2c(C#N)cnc3cc(OCCCN4CCN(C)CC4)c(OC)cc23)c(Cl)cc1Cl`
Response: 87.7%

Query: What measured residual activity is associated with `NC(=O)c1cccc(-c2cc(Nc3ccc(OC(F)(F)F)cc3)ncn2)c1` on RPS6KB1 (human)?
Response: 109%

Query: Quick check: residual activity on RPS6KB1 (human), item `Ic1cccc(CSc2nnc(-c3ccncc3)o2)c1` ?
Response: 100%

Query: What value of residual activity on RPS6KB1 (human) does `COc1ccc(C(=O)Nc2sc3c(c2C(N)=O)CCCC3)cc1OC` have?
Response: 84.3%

Query: Find the measured residual activity: item `CN(C)S(=O)(=O)c1ccc2c(c1)/C(=C/c1cc3c([nH]1)CCCC3)C(=O)N2` , target or system RPS6KB1 (human).
Response: 96.5%

Query: Identify the measured residual activity of `N#C/C(=C\c1ccc(O)c(O)c1)C(=O)NCc1ccccc1` for RPS6KB1 (human).
Response: 92.8%

Query: Field: residual activity (RPS6KB1 (human)). Entry: `Cc1cncc2cccc(S(=O)(=O)N3CCCN(C(=O)CN)C[C@H]3C)c12`
Response: 93.3%
